Target: human CD73 (Homo sapiens)
Sequence (P21589 27-549): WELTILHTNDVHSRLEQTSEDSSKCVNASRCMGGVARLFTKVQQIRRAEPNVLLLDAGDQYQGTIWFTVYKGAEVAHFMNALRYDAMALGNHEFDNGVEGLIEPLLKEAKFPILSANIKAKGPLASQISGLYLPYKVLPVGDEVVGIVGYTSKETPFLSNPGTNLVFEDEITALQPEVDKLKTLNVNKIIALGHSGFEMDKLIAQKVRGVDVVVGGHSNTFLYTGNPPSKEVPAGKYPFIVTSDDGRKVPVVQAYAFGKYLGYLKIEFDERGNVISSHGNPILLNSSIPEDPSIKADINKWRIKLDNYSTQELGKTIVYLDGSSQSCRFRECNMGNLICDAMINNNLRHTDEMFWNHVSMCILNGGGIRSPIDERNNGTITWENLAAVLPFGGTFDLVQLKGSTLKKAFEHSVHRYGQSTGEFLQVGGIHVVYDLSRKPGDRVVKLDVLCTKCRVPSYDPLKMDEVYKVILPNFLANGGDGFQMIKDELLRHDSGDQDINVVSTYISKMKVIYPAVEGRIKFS
Assay: Inhibition of Ecto-5′-nucleotidase (CD73) activity in CHO-CD73 cells, phosphate release from AMP
Details: CHO-K1 cells stably transfected with human CD73; 25 μM AMP; 50 minutes, 37° C.; read-out: Potency: CD73 IC50
compounds and their reported IC50

N#Cc1ccc(Cn2nccc2-c2cc(F)c3nnn(-c4ccc5[nH]c(=O)[nH]c5c4)c3c2)c(-c2ccn[nH]2)c1; 0.1 to 1 µM

For reference, reported IC50 for Fc1cc(-c2ccnn2Cc2ccc(Cl)cn2)cc2c1nnn2-c1ccc2cn[nH]c2c1 stands at < 0.1 µM
